B1: library; numbered along this chain (parent)
chain: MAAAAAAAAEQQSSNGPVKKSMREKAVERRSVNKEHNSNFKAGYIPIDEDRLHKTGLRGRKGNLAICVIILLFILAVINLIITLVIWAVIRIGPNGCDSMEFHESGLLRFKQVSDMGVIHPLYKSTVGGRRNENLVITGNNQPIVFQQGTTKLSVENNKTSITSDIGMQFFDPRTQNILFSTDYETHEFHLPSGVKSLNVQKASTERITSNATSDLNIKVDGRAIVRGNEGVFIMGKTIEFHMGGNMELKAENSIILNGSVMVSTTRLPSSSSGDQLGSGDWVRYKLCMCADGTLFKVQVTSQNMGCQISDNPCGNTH

# Variants of: B1
# Assay comment: SGCB cell-surface expression functional score (HA stain, bin4 vs bin1, normalised to synonymous) (log10 ratio); higher = more cell-surface SGCB (functional)
# binarize SGCB cell-surface expression functional score (log10): threshold 0.01 inclusive, high side Satisfied, low side Not satisfied

INSERT INTO assay_data (mutant_designation, discrete_label) VALUES
  ('F40Q', 'Satisfied'),
  ('I166H', 'Not satisfied'),
  ('Q142I', 'Not satisfied'),
  ('L71P', 'Not satisfied'),
  ('D48I', 'Satisfied'),
  ('N140E', 'Satisfied'),
  ('G139I', 'Not satisfied'),
  ('Q308M', 'Satisfied'),
  ('I86H', 'Not satisfied'),
  ('E133K', 'Not satisfied'),
  ('G59P', 'Satisfied'),
  ('N157V', 'Satisfied'),
  ('R130D', 'Not satisfied'),
  ('F189L', 'Not satisfied'),
  ('S193A', 'Satisfied'),
  ('S13K', 'Satisfied'),
  ('S181I', 'Not satisfied'),
  ('K219W', 'Not satisfied'),
  ('L107T', 'Not satisfied'),
  ('Q201D', 'Not satisfied');

Origin of the recorded values: the supplement of paper PMC10266784
